molecular target: EPHB1 (UniProt P54762); test: phosphorylation enrichment, bacterial display (enrichment ratio); higher = better substrate or ligand; peptides without Tyr show the background
Sequence (P54762 whole entry, looked up): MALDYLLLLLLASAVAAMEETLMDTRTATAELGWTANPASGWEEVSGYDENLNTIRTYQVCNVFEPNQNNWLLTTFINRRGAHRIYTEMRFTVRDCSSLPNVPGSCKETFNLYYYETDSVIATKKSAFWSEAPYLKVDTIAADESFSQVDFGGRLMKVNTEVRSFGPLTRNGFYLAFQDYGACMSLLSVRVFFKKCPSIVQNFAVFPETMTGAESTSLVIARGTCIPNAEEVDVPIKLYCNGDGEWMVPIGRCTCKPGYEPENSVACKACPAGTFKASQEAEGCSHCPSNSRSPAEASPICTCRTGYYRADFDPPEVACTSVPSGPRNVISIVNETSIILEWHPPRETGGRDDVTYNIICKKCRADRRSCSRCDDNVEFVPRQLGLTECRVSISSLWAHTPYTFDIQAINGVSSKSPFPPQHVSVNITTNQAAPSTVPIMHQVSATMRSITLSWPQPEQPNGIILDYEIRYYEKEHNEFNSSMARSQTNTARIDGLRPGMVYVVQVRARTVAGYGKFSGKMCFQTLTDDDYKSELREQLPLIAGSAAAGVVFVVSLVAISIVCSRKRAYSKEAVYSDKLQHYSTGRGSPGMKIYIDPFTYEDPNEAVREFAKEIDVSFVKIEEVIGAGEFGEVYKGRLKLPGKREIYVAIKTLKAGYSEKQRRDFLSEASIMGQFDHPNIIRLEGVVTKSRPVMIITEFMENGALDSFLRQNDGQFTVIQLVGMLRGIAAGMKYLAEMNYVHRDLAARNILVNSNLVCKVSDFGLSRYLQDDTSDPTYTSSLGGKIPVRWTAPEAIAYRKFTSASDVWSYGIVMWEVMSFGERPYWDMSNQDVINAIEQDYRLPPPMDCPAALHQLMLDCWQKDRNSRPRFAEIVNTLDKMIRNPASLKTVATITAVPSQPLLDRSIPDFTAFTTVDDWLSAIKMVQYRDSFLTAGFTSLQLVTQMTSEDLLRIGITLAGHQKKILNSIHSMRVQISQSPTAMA
Response field class: enum, chosen by comparing phosphorylation enrichment against low band: < 0.5; middle band: ≥ 0.5 and < 0.7; high band: ≥ 0.7

{"columns": ["primary_sequence", "label"],
 "data": [
  ["NDQANYLLNTD [ADA_Y290_S291L]", "middle band"],
  ["YHIDHYLGKEM [G6PD_Y202_R198H]", "low band"],
  ["GSCQEYTGAPY [NAXD_Y85_G81S]", "middle band"],
  ["AAGGRYFGLVG [HARS1_Y363_D364Y_YF]", "low band"]
]}

Problem: Pick a category. Item: ICTVDYLLRLQ [RYR1_Y3921]
Result: middle band

Problem: Lab note: which band did VMLENYSNLVS [ZFP69_Y109] land in?
Result: high band

Problem: Sort FDCGMYSHLQG [LGR4_Y848_YF] into one of the categories.
Result: high band

Problem: Class (by measured phosphorylation enrichment) for RSRQIYDAYIM [GRK3_Y109]
Result: high band

Problem: State the class of the sequence shown: NFATLHLKIYH [PDE6B_Y219_Y219H]
Result: middle band

Problem: Form: Item = SLFNGYVFSGM [NEIL3_Y71_V76M_YF] ; Class = ?
Result: middle band

Problem: Which class holds KTNVSYCGALD [CACNB4_Y103] ?
Result: middle band

Problem: Class for PSVVAYPKRSQ [MARK3_Y432] ?
Result: middle band

Problem: Kindly identify the class of SLQFEYVHYGG [CDC14A_Y591_S589F] .
Result: middle band

Problem: Lab log: FSCLPCGRLAF [SLC52A2_Y305_Y305C_YF] — assign phosphorylation enrichment category
Result: low band

----------
target: EPHB2 (UniProt P29323); assay: phosphorylation enrichment, bacterial display (enrichment ratio); higher = better substrate or ligand; peptides without Tyr show the background
Sequence (P29323 whole entry, looked up): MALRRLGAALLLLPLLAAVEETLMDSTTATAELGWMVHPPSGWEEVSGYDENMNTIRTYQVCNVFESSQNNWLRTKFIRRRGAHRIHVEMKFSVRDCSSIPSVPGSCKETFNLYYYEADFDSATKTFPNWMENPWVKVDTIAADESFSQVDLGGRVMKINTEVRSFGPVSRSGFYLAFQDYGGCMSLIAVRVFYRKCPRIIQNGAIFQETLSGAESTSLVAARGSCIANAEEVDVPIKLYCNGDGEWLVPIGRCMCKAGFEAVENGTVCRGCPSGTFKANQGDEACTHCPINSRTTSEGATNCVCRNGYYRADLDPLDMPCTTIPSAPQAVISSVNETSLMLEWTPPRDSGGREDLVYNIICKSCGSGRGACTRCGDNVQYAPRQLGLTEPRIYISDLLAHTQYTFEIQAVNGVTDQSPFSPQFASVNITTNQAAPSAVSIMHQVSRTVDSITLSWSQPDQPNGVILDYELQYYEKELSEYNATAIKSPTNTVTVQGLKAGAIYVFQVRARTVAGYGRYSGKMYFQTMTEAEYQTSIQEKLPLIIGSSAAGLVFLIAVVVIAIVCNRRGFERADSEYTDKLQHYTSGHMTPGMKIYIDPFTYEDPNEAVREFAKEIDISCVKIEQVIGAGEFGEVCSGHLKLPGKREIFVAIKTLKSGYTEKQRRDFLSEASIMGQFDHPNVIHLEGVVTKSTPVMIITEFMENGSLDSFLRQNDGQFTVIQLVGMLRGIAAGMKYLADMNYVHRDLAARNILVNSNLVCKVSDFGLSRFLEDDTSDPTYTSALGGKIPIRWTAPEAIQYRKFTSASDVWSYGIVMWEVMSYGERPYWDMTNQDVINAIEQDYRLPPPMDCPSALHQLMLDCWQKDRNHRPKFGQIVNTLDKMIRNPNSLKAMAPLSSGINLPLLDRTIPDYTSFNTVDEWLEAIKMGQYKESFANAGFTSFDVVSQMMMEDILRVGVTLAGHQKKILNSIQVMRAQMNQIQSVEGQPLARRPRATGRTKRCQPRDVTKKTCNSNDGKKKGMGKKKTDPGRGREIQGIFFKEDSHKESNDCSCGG
Use 0.5 as the dividing line for phosphorylation enrichment, with the line itself on the 1 side and lower values as 0.

Check out these entries, answers already filled in.
{"columns": ["primary_sequence", "label"],
 "data": [
  ["VNTMLYEKFTY [TEK_Y1108_T1106M]", 1],
  ["YKRAVYCIIGR [NUP93_Y391]", 0],
  ["HIPFRYPKEFQ [IDS_Y234]", 1],
  ["YQKDVYNIPPS [NEDD9_Y177_D178N]", 1]
]}

Continue with the next sequence.
Problem: Decide: is the reported value of phosphorylation enrichment for MSRNLYSGDYY [DDR2_Y736] equal to or greater than 0.5?
Result: 1

----------
molecular target: c-Src SH2; assay: SH2 binding enrichment of the phosphorylated peptide, bacterial display (enrichment ratio); higher = better substrate or ligand; peptides without Tyr show the background
Everything with SH2 binding enrichment lower than 0.7 is class 0; everything else, including exactly 0.7, is class 1.

{"columns": ["primary_sequence", "label"],
 "data": [
  ["VRFTEYETQVK [TARDBP_Y155]", "class 0"],
  ["GTATTYLCGVK [ALPL_Y117_A116T]", "class 0"],
  ["SSSPTYLDLPF [GLI3_Y168_P169L]", "class 0"]
]}

Problem: In plain terms: is recorded SH2 binding enrichment at least 0.7 for FGLDHYQCDCT [PTGS1_Y54_R53H] ?
Result: class 1

Problem: Quick check: does VIIVLYFSLWK [SLC6A2_Y249_V245I] have SH2 binding enrichment greater than or equal to 0.7?
Result: class 1

Problem: Assess whether reported SH2 binding enrichment for QKLPLYILENN [VPS13B_Y2774_S2773L] sits at 0.7 or higher.
Result: class 0

Problem: Hi team, for SNYRAYATEPQ [TNNI3_Y29_H34Q] , is the recorded SH2 binding enrichment at or above 0.7?
Result: class 0

Problem: API: above_or_equal(metric=SH2 binding enrichment, cutoff=0.7) for item PVKTPYSLKRW [BMPR2_Y979_R974P]
Result: class 1

Problem: Please tell me: is the sequence IEDPFYGNDSD [ACP1_Y133_YF] at or over 0.7 in terms of SH2 binding enrichment?
Result: class 0

Problem: Reported SH2 binding enrichment at or above 0.7? QITQVCGFYDE [PPP2CA_Y127_Y127C]
Result: class 1

Problem: Does the reported SH2 binding enrichment for SGRSGYCLGTR [SCO1_Y60_P58S] fall at or above the 0.7 mark?
Result: class 1

Problem: Dear colleague, could you confirm whether AAGGRYFGLVG [HARS1_Y363_D364Y_YF] has SH2 binding enrichment at or above 0.7?
Result: class 0

Problem: Quick check, SH2 binding enrichment >= 0.7? STKELYEKYMI
Result: class 1

----------
biological target: Grb2 SH2 (UniProt P62993); test: SH2 binding enrichment of the phosphorylated peptide, bacterial display (enrichment ratio); higher = better substrate or ligand; peptides without Tyr show the background
Sequence (P62993 whole entry, looked up): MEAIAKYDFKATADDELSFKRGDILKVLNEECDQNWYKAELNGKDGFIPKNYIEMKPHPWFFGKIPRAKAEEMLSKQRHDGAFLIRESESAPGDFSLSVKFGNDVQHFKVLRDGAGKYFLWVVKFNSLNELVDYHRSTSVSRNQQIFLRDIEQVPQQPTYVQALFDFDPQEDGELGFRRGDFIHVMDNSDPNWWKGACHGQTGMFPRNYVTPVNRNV
As shown below, each of these sequences has a reported SH2 binding enrichment value.
# output: bare number, no unit

{"columns": ["primary_sequence", "target_or_system", "SH2 binding enrichment"],
 "data": [
  ["FSAGTYPRLEE [SYCN_Y108]", "Grb2 SH2 (UniProt P62993)", 0.783],
  ["PVKTPYSLKRW [BMPR2_Y979_R974P]", "Grb2 SH2 (UniProt P62993)", 1.46],
  ["GSSKIYFLHAD [TLR5_Y108_P112A]", "Grb2 SH2 (UniProt P62993)", 1.12]
]}

Here is the next item to consider.
Problem: Dear colleague, I am looking for the recorded SH2 binding enrichment of the following sequence: RRNTFYASIAK [ACADM_Y353_YF]
Result: 0.772

----------
target: EPHB1 (UniProt P54762); assay: phosphorylation enrichment, bacterial display (enrichment ratio); higher = better substrate or ligand; peptides without Tyr show the background
quantity_measured: phosphorylation enrichment
Answer using only a numeral; do not append any unit.

Worked cases, phosphorylation enrichment given:
{"columns": ["primary_sequence", "target_or_system", "phosphorylation enrichment"],
 "data": [
  ["CSPLLYRVIMS [OR8D4_Y132]", "EPHB1 (UniProt P54762)", 0.691],
  ["VHLFAYDWISI [BEST1_Y227_G222V_YF]", "EPHB1 (UniProt P54762)", 1.06],
  ["LRAGVYREKDQ [DNM2_Y626_P627R]", "EPHB1 (UniProt P54762)", 0.392],
  ["WNDLDYMDSRR [GAA_Y407]", "EPHB1 (UniProt P54762)", 0.698],
  ["RSLLQYGGSAN [ANK1_Y624]", "EPHB1 (UniProt P54762)", 0.709]
]}

Problem: Looking for the measured phosphorylation enrichment of ELPEKYSQNIY [PKP2_Y626] , can you help?
Result: 0.459

Problem: Look at this sequence and give its reported phosphorylation enrichment. KWRGQYDVANK [BTK_Y425_I429N]
Result: 0.381

Problem: # query: phosphorylation enrichment of entry VEDQFYRVDCF [FHL1_Y208_C209R_YF]
Result: 0.692

Problem: Return reported phosphorylation enrichment; argument: LTTEAYEWEPC [ELMOD3_Y61_R66C]
Result: 3.5

Problem: Value lookup for phosphorylation enrichment; key = RRIHSYRRHLW [VHL_Y112_G114R]
Result: 0.725

Problem: Consider the sequence shown here: CERLPYDANKW [FLT1_Y815_S818N] What is its recorded phosphorylation enrichment?
Result: 0.626

----------
Entries annotated with measured phosphorylation enrichment
target: FGFR1 (UniProt P11362); assay: phosphorylation enrichment, bacterial display (enrichment ratio); higher = better substrate or ligand; peptides without Tyr show the background
Sequence (P11362 whole entry, looked up): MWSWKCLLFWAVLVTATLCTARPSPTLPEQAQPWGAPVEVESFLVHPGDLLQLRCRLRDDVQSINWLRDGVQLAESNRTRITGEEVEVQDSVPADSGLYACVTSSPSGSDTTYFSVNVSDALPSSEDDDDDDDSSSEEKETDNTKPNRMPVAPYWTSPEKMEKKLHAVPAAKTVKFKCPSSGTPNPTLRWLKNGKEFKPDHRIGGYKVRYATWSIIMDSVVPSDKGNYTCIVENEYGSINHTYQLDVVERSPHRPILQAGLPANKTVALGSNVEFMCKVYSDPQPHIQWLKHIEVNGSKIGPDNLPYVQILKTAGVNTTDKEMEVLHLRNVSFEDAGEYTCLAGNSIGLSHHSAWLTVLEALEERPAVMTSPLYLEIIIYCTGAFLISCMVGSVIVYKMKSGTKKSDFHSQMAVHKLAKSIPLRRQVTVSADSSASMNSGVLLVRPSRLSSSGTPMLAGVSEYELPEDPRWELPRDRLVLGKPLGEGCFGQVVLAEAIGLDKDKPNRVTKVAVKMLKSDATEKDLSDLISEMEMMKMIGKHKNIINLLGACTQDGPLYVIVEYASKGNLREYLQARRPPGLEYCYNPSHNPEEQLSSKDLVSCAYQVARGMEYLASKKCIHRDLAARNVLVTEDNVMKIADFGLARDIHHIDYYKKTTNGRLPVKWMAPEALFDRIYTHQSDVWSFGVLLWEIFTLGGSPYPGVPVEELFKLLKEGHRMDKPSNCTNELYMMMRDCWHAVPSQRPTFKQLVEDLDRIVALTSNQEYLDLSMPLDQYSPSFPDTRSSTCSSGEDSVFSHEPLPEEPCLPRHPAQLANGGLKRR
Lab note: write the figure by itself, no unit.

Example results:
{"columns": ["primary_sequence", "phosphorylation enrichment"],
 "data": [
  ["CFTRKYTLPPG [HSPB1_Y142]", 0.495],
  ["IENKLCGMSDP [RET_Y1062_Y1062C]", 0.687],
  ["SETSRYLSELF [KCNJ3_Y67_D70E]", 0.509]
]}

Continue with the next sequence.
Problem: # phosphorylation enrichment lookup, item DNLNNYVFQGQ [GRIN2A_Y978]
Result: 0.703

----------
biological target: Fyn (UniProt P06241); experiment: phosphorylation enrichment, bacterial display (enrichment ratio); higher = better substrate or ligand; peptides without Tyr show the background
Sequence (P06241 whole entry, looked up): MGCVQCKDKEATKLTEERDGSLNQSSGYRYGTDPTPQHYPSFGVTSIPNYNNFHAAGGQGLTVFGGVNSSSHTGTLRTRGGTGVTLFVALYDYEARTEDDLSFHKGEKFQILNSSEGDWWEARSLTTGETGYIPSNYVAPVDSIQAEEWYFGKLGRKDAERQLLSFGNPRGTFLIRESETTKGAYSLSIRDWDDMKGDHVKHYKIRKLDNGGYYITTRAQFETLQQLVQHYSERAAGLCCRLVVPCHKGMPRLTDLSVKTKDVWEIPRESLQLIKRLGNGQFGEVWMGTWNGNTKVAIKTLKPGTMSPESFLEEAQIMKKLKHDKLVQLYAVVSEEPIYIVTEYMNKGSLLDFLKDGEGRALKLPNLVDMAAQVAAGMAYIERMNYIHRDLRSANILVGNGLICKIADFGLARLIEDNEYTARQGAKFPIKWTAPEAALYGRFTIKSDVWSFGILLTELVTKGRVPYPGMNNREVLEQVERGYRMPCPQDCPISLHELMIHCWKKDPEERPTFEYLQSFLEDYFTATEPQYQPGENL
Decide using phosphorylation enrichment: a value greater than or equal to 0.6 is label 1, a smaller one is label 0.

{"columns": ["primary_sequence", "target_or_system", "label"],
 "data": [
  ["KQLGEYKFQNA [ALB_Y425_E420K]", "Fyn (UniProt P06241)", "label 0"],
  ["LPEENYQVLCF [ARHGAP1_Y365_R369C]", "Fyn (UniProt P06241)", "label 1"],
  ["ELQGTYTSLQQ [KIF3C_Y574_R571Q]", "Fyn (UniProt P06241)", "label 1"],
  ["HAVVDYMRRQK [ATM_Y1915_L1910H]", "Fyn (UniProt P06241)", "label 1"],
  ["SLNEGYAKDFD [FBP1_Y216_R218K]", "Fyn (UniProt P06241)", "label 0"],
  ["AAGGRYFGLVG [HARS1_Y363_D364Y_YF]", "Fyn (UniProt P06241)", "label 0"]
]}

Problem: Given the entry HRDSSYYWEIE [RAF1_Y340_Q335H] , answer whether its phosphorylation enrichment meets or surpasses 0.6.
Result: label 1

Problem: Does the sequence IGLHAYGDQYR [IDH1_Y135_R132L] have recorded phosphorylation enrichment that is 0.6 or more?
Result: label 0

Problem: Check the entry SEKISYVYMKR [SSX7_Y48_L43S] : does phosphorylation enrichment equal or exceed 0.6?
Result: label 0
